target: soluble human BACE1 catalytic domain (Homo sapiens (Human), UniProt P56817)
Sequence (P56817 75-416): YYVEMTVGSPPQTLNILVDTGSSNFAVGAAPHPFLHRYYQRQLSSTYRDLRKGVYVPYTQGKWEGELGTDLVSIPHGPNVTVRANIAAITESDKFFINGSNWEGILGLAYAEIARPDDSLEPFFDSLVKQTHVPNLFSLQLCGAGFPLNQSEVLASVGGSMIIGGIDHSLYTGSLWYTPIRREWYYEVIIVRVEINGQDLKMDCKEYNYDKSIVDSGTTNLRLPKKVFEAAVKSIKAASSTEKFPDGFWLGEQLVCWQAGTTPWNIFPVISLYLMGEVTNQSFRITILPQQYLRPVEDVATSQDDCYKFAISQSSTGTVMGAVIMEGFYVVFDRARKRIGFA
# pKi values compiled below
Just so you know, pKi here is -log10 of the concentration in molar units; reply with that number alone.

# annotated cases, reported pKi shown
1) COc1cnc(C(=O)Nc2ccc(F)c([C@]3(C)CN(C)S(=O)(=O)C(C)(C)C(=N)N3)c2)c(C)c1: 7.17
2) CN1C[C@@](C)(c2cc(NC(=O)c3cnc(C(F)(F)F)cn3)ccc2F)NC(=N)C(C)(C)S1(=O)=O: 6.82

Now consider the entry below.
[in] For the molecule shown here, Cc1nc(C(=O)Nc2ccc(F)c([C@]3(C)CN(C)S(=O)(=O)C(C)(C)C(=N)N3)c2)no1 , give the reported pKi.
[out] 6.82

* * *

Biological target: purified human autoBACE-2 (Homo sapiens, UniProt Q9Y5Z0)
Sequence (Q9Y5Z0 63-518 limits assumed): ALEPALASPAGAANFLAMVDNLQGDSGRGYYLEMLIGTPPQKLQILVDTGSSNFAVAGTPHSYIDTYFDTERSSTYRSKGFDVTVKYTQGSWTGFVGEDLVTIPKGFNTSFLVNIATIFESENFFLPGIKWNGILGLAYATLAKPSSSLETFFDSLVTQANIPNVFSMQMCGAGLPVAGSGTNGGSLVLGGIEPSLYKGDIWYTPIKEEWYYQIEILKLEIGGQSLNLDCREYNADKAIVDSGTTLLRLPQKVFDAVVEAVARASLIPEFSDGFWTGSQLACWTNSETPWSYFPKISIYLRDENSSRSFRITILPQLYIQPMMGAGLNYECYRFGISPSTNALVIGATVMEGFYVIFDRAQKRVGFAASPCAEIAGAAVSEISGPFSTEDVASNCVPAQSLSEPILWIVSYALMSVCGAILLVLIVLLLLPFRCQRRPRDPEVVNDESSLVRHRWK
Test: BACE-2 Assay (BACE-HTRF assay)
Type: biochemical
Conditions: Ki calculated from IC50 using the Cheng-Prusoff equation; QSY7-EISEVNLDAEFC-Eu-amide substrate, pH 5.0; read-out: BACE2 Ki
Protocol: DMSO is present at 5% final concentration in the assay. Following laser excitation of sample wells at 320 nm, the fluorescence signal at 620 nm is collected for 400 ms following a 50 μs delay on a RUBYstar HTRF plate reader (BMG Labtechnologies). Raw RFU data is normalized to maximum (1.0 nM BACE/DMSO) and minimum (no enzyme/DMSO) RFU values. […] The Ki values are calculated from the IC50 using the Cheng-Prusoff equation.
Ki strictly less than 0.1 µM = TRUE. Otherwise FALSE.

The examples below pair each entry with its known result.
1) CN1C[C@@](C)(c2cc(NC(=O)c3ccc(OC(F)F)cn3)ccc2F)NC(=N)C(C)(C)S1(=O)=O: FALSE
2) CO[C@H](C)C(=O)Nc1ccc(F)c([C@]2(C)CN(C)S(=O)(=O)C(C)(C)C(=N)N2)c1: FALSE
3) CN1C[C@@](C)(c2cc(NC(=O)c3cn(C)nc3C(F)(F)F)ccc2F)NC(=N)C(C)(C)S1(=O)=O: FALSE
4) CN1C[C@@](C)(c2cc(NC(=O)c3ccccn3)ccc2F)NC(=N)C(C)(C)S1(=O)=O: TRUE
5) Cc1nc(C(=O)Nc2ccc(F)c([C@]3(C)CN(C)S(=O)(=O)C(C)(C)C(=N)N3)c2)no1: TRUE

[in] Could you please tell me whether Ki recorded for CN1C[C@@](C)(c2cc(NC(=O)c3cnc(C(F)(F)F)cn3)ccc2F)NC(=N)C(C)(C)S1(=O)=O is less than 0.1 µM?
[out] FALSE

[in] Moving on to CN1C[C@@](C)(c2cc(NC(=O)c3ccc(Cl)cn3)ccc2F)NC(=N)C(C)(C)S1(=O)=O
[out] TRUE

[in] Moving on to CO[C@@H](C)C(=O)Nc1ccc(F)c([C@]2(C)CN(C)S(=O)(=O)C(C)(C)C(=N)N2)c1
[out] FALSE
